Every entry's value here was drawn from PubChem BioAssay.

Listed next: entries and their corresponding composite z-score.
system: XIP peptide (Xip251-270); assay: compounds binding XIP fragment 251-270 – biochemical, small-molecule microarray, fluorescence 635/667 nm, 0.5 µg/mL protein, primary screen (AID 1183); details: fluorescence 635 nm, higher = more signal
# answer = number (no unit)

Answered cases to consult:
[N-]=[N+]=Nc1ccccc1[C@H]1OC(c2ccc(OCCCO)cc2)=N[C@@]1(Cc1ccccc1)C(=O)NCC(O)CO (some centres undefined) : 0.536
COc1ccc([Si](C)(C)[C@@H]2[C@@H](CC(=O)N(CCO)Cc3ccccc3)O[C@]3(C(=O)N(Cc4ccc(N5C(=O)c6cccc7cccc5c67)cc4)c4ccccc43)[C@H]2C)cc1 : 0.577
CC(C)N1C(=O)c2ccccc2[C@](C)(C(=O)NCC(F)(F)F)[C@@H]1c1ccc(CO)cc1 : 0.464
CC(C)C(O)C1C=CC2C(=O)NC(=O)C2N1Nc1ccccn1 (centres undefined) : 0.943
COCCCNC(=O)[C@@]1(CCS(=O)(=O)c2ccccc2)COC(c2ccc(OCCCO)cc2)=N1 : -0.227

Lab note: next molecule to report on.
IN: Report composite z-score for CC1CC/C=C\[C@H]2OC34C=CCN(c5ccc6ccccc6c5)C(=O)[C@H]3N(C(C)CO)C(=O)[C@@H]4C2C(=O)O1 (some centres undefined) please.
OUT: -0.691
